B1: Neutrophil cytosol factor 2, residues 456 to 514; numbered along this chain, P19878 (parent)
chain: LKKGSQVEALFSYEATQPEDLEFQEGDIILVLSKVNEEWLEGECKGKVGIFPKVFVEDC

Variants of: B1
ASSAY_NOTES: abundance fitness (aPCA) (normalised: wild type 0, dead -1); higher = more abundant; growth selection in yeast, the domain comes from the species named
EXPERIMENTAL_CONTEXT: Homo sapiens
Rule: abundance fitness under -0.5 gives F, otherwise T.

Take a look at these entries with their results.
- MUTANT_DESIGNATION: "L10W"
  CLASS_ASSIGNMENT: "F"
- MUTANT_DESIGNATION: "L30T"
  CLASS_ASSIGNMENT: "T"
- MUTANT_DESIGNATION: "Q17M"
  CLASS_ASSIGNMENT: "T"
- MUTANT_DESIGNATION: "V31P"
  CLASS_ASSIGNMENT: "T"
- MUTANT_DESIGNATION: "D20H"
  CLASS_ASSIGNMENT: "T"
- MUTANT_DESIGNATION: "Q6P"
  CLASS_ASSIGNMENT: "F"
- MUTANT_DESIGNATION: "K3A"
  CLASS_ASSIGNMENT: "T"
- MUTANT_DESIGNATION: "V35N"
  CLASS_ASSIGNMENT: "F"
- MUTANT_DESIGNATION: "N36S"
  CLASS_ASSIGNMENT: "F"
- MUTANT_DESIGNATION: "N36M"
  CLASS_ASSIGNMENT: "T"

Input: Is the recorded value of abundance fitness equal to or greater than -0.5 for this variant? V48K
Output: T

Input: Is the recorded value of abundance fitness equal to or greater than -0.5 for this variant? I29H
Output: F

Input: Is the recorded value of abundance fitness equal to or greater than -0.5 for this variant? T16H
Output: F

Input: Is the recorded value of abundance fitness equal to or greater than -0.5 for this variant? I28L
Output: T

Input: Is the recorded value of abundance fitness equal to or greater than -0.5 for this variant? F23M
Output: T

Input: Is the recorded value of abundance fitness equal to or greater than -0.5 for this variant? I50D
Output: T

Input: Is the recorded value of abundance fitness equal to or greater than -0.5 for this variant? I50M
Output: F

Input: Is the recorded value of abundance fitness equal to or greater than -0.5 for this variant? W39G
Output: T

Input: Is the recorded value of abundance fitness equal to or greater than -0.5 for this variant? L10R
Output: T

Input: Is the recorded value of abundance fitness equal to or greater than -0.5 for this variant? K53L
Output: F
